# System: SF-295 CNS
# MEASUREMENT DESCRIPTION: NCI tumour cell line growth inhibition, 48 h
MEASUREMENT LABEL: TGI

{"columns": ["MOLECULE", "TGI"],
 "data": [
  ["CC(=O)[CH-]C(=O)c1ccccc1.CC(=O)[CH-]C(=O)c1ccccc1.CC1(C)C2CCC1(C)C([O-])C2.CC1(C)C2CCC1(C)C([O-])C2.[Ti+4]", "> 100 µM"]
]}

# lookup: TGI of Cc1cc(S(N)(=O)=O)c(S/C(CC(C)C)=N\Nc2ccc([N+](=O)[O-])cc2)cc1Cl 5.7 µM

###

# Tested on: SF-295 CNS
# MEASUREMENT DESCRIPTION: NCI tumour cell line growth inhibition, 48 h
TGI for assorted molecules

Reference set, count: 2
{"columns": ["MOLECULE", "TGI"],
 "data": [
  ["CCC/C(=N/NC(=O)C(N)=O)C(CC)C(=O)CCC(=O)N(Cc1ccccc1)Cc1ccccc1 (stereo not drawn)", "> 100 µM"],
  ["c1ccc2[nH]c(-c3ccc(NN=Nc4ccncc4)cc3)nc2c1", "> 100 µM"]
]}

Return reported TGI; argument: CC(=O)[CH-]C(=O)c1ccccc1.CC(=O)[CH-]C(=O)c1ccccc1.[Eu+3].[OH-].[OH3+] > 100 µM
